Source of measurements: patent US20170081400A1

Molecular target: T1, human TL1A extracellular domain with N-terminal HIS and FLAG tag (human, UniProt O95150 72-251)
T1 construct: the whole entry is named
T1 sequence: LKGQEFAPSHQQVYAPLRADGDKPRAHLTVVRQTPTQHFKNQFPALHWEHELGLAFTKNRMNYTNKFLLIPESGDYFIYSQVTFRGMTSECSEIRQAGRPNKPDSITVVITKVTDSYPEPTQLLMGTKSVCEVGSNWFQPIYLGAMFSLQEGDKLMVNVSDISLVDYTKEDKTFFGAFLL
Experiment: SPR Run 4, purified Ab captured on Protein A, TL1A 5 ug/mL, timepoint 220
Respond with fulfilled for TL1A Binding Level (Late) values of 90 RU and above, not fulfilled for values below.

binder	assigned-label
320-370 (antibody, human IgG1, name in Kabat numbering, V domains shown, human IgG1, lambda) VH: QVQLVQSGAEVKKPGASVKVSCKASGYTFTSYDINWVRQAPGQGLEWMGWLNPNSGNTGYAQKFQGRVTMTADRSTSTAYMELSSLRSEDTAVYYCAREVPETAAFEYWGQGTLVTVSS VL: QSVLTQPPSVSGAPGQRVTISCTSSSSDIGAGLGVHWYQQLPGTAPKLLIEGYYNRPSGVPDRFSGSKSGTSASLTITGLLPEDEGDYYCQSYDGTLWALFGGGTKLTVLG	not fulfilled
320-345 (antibody, human IgG1, name in Kabat numbering, V domains shown, human IgG1, lambda) VH: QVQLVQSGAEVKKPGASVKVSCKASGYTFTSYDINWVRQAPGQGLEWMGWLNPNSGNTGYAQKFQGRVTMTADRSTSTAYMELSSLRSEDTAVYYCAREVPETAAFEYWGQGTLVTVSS VL: QSVLTQPPSVSGAPGQRVTISCTSSSSDIGAGLGVHWYQQLPGTAPKLLIEGYYNRPSGVPDRFSGSKSGTSASLTITGLLPEDEGDYYCQSYDKTLSALFGGGTKLTVLG	fulfilled
320-344 (antibody, human IgG1, name in Kabat numbering, V domains shown, human IgG1, lambda) VH: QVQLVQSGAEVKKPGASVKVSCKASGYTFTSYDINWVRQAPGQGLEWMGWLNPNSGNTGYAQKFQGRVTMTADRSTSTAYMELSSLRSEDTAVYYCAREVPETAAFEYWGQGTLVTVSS VL: QSVLTQPPSVSGAPGQRVTISCTSSSSDIGAGLGVHWYQQLPGTAPKLLIEGYYNRPSGVPDRFSGSKSGTSASLTITGLLPEDEGDYYCQSYDHTLSALFGGGTKLTVLG	not fulfilled
320-342 (antibody, human IgG1, name in Kabat numbering, V domains shown, human IgG1, lambda) VH: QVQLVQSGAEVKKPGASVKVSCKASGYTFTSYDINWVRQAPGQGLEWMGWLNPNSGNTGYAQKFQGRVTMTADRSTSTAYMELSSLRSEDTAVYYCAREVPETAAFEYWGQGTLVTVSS VL: QSVLTQPPSVSGAPGQRVTISCTSSSSDIGAGLGVHWYQQLPGTAPKLLIEGYYNRPSGVPDRFSGSKSGTSASLTITGLLPEDEGDYYCQSYDQTLSALFGGGTKLTVLG	fulfilled
320-340 (antibody, human IgG1, name in Kabat numbering, V domains shown, human IgG1, lambda) VH: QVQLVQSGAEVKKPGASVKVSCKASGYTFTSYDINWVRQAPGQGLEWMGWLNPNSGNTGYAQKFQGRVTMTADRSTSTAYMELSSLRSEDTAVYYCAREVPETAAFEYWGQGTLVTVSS VL: QSVLTQPPSVSGAPGQRVTISCTSSSSDIGAGLGVHWYQQLPGTAPKLLIEGYYNRPSGVPDRFSGSKSGTSASLTITGLLPEDEGDYYCQSYDATLSALFGGGTKLTVLG	fulfilled
320-364 (antibody, human IgG1, name in Kabat numbering, V domains shown, human IgG1, lambda) VH: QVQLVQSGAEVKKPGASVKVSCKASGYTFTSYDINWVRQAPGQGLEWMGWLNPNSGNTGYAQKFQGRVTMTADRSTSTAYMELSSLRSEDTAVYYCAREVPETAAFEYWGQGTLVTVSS VL: QSVLTQPPSVSGAPGQRVTISCTSSSSDIGAGLGVHWYQQLPGTAPKLLIEGYYNRPSGVPDRFSGSKSGTSASLTITGLLPEDEGDYYCQSYDGTLAALFGGGTKLTVLG	fulfilled
320-354 (antibody, human IgG1, name in Kabat numbering, V domains shown, human IgG1, lambda) VH: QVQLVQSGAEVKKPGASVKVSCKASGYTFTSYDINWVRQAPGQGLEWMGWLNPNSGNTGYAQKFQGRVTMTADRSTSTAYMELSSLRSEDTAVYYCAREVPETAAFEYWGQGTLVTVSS VL: QSVLTQPPSVSGAPGQRVTISCTSSSSDIGAGLGVHWYQQLPGTAPKLLIEGYYNRPSGVPDRFSGSKSGTSASLTITGLLPEDEGDYYCQSYDGKLSALFGGGTKLTVLG	not fulfilled
320-314 (antibody, human IgG1, name in Kabat numbering, V domains shown, human IgG1, lambda) VH: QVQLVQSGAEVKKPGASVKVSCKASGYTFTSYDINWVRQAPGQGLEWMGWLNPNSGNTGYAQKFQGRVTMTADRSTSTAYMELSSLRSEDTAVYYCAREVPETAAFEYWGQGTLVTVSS VL: QSVLTQPPSVSGAPGQRVTISCTSSSSDIGAGLGVHWYQQLPGTAPKLLIEGYYNRPSGVPDRFSGSKSGTSASLTITGLLPEDEGDYYCKSYDGTLSALFGGGTKLTVLG	fulfilled
320-359 (antibody, human IgG1, name in Kabat numbering, V domains shown, human IgG1, lambda) VH: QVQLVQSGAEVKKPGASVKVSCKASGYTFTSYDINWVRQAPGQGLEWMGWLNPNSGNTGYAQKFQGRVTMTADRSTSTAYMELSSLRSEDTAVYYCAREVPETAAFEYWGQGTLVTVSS VL: QSVLTQPPSVSGAPGQRVTISCTSSSSDIGAGLGVHWYQQLPGTAPKLLIEGYYNRPSGVPDRFSGSKSGTSASLTITGLLPEDEGDYYCQSYDGTSSALFGGGTKLTVLG	not fulfilled
320-351 (antibody, human IgG1, name in Kabat numbering, V domains shown, human IgG1, lambda) VH: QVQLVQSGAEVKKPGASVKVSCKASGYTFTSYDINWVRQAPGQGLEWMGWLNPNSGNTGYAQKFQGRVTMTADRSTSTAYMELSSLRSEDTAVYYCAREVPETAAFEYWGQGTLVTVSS VL: QSVLTQPPSVSGAPGQRVTISCTSSSSDIGAGLGVHWYQQLPGTAPKLLIEGYYNRPSGVPDRFSGSKSGTSASLTITGLLPEDEGDYYCQSYDGQLSALFGGGTKLTVLG	not fulfilled
